# target: cloned human κ receptors (Homo sapiens)
# Sequence (P41145 whole entry): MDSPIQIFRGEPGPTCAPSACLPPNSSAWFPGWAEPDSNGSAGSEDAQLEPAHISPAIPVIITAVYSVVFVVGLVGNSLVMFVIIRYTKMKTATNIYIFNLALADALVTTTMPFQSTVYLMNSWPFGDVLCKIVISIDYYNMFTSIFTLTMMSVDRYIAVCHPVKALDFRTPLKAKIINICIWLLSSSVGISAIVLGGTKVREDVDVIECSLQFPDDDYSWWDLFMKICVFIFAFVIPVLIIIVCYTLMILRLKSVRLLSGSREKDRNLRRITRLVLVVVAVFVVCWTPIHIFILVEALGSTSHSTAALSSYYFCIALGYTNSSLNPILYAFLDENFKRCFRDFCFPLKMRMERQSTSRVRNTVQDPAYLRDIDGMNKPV
# procedure-summary: Stimulation of [35S]GTPγS binding to membranes
# details: half-maximal stimulation of [35S]GTPγS binding; read-out: EC50 (agonist)
experimental-readout: EC50 (pM)
Answers are plain numbers, in pM.

Recorded EC50 of CN(C(=O)CNc1ccccc1)[C@H](CN1CC[C@H](O)C1)c1ccccc1 , please.
50

---

# target: cloned human κ opioid receptor (Homo sapiens, UniProt P41145)
experimental-readout: pKi
Give bare numbers, as −log10 of the molar value.

So what does the record say about pKi for CN(C(=O)CNc1ccccc1)[C@H](CN1CC[C@H](O)C1)c1ccccc1 ?
9.77
